system: Rattus norvegicus; assay: Dose normalized AUC in Sprague-Dawley rat at 1 mg/kg, po; assay type: ADME, organism-based; set-up: dose 1 mg/kg, route oral; conditions: in vivo
Listed compounds paired with reported AUC/dose

SMILES STR | UNIT DESCRIPTOR | AUC/dose
CC(C)(O)c1nc(-c2cccc3c2N(S(=O)(=O)c2ccc(C(F)(F)F)cc2)Cc2ccc(C(F)(F)F)nc2N3)no1 | µM·kg·h/mg | 1.05
CC(C)(C)c1ccc(S(=O)(=O)N2Cc3ccc(C(F)(F)F)nc3Nc3cccc(-c4noc(CO)n4)c32)cc1 | µM·kg·h/mg | 0.39
C[C@@H](O)c1nc(-c2cccc3c2N(S(=O)(=O)c2ccc(C(C)(C)C)cc2)Cc2ccc(C(F)(F)F)nc2N3)no1 | µM·kg·h/mg | 0.9
CC(C)(C)c1ccc(S(=O)(=O)N2Cc3ccc(C(F)(F)F)nc3Nc3cccc(-c4noc(C(C)(C)O)n4)c32)cc1 | µM·kg·h/mg | 0.65
CC(C)(O)c1nc(-c2cccc3c2N(S(=O)(=O)c2ccc(OC(F)(F)F)cc2)Cc2ccc(C(F)(F)F)nc2N3)no1 | µM·kg·h/mg | 1.6
C[C@H](O)c1nc(-c2cccc3c2N(S(=O)(=O)c2ccc(C(C)(C)C)cc2)Cc2ccc(C(F)(F)F)nc2N3)no1 | µM·kg·h/mg | 0.34

----------
experiment: Plasma clearance in Sprague-Dawley rat at 0.5 mg/kg, iv; format: ADME, organism-based; set-up: dose 0.5 mg/kg, route intravenous

SMILES STR | UNIT DESCRIPTOR | clearance
CC(C)(O)c1nc(-c2cccc3c2N(S(=O)(=O)c2ccc(C(F)(F)F)cc2)Cc2ccc(C(F)(F)F)nc2N3)no1 | mL/min/kg | 33
CC(C)c1ccc(S(=O)(=O)N2Cc3ccc(C(F)(F)F)nc3Nc3cccc(-c4noc(C(C)(C)O)n4)c32)cc1 | mL/min/kg | 49
CC(C)(C)c1ccc(S(=O)(=O)N2Cc3ccc(C(F)(F)F)nc3Nc3cccc(-c4noc(C(C)(C)O)n4)c32)cc1 | mL/min/kg | 44
C[C@H](O)c1nc(-c2cccc3c2N(S(=O)(=O)c2ccc(C(C)(C)C)cc2)Cc2ccc(C(F)(F)F)nc2N3)no1 | mL/min/kg | 86
CC(C)(C)c1ccc(S(=O)(=O)N2Cc3ccc(C(F)(F)F)nc3Nc3cccc(-c4noc(CO)n4)c32)cc1 | mL/min/kg | 22
C[C@@H](O)c1nc(-c2cccc3c2N(S(=O)(=O)c2ccc(C(C)(C)C)cc2)Cc2ccc(C(F)(F)F)nc2N3)no1 | mL/min/kg | 33

----------
target: Bombesin receptor subtype-3 (Mus musculus); assay: Agonist activity at mouse BRS-3 expressed in HEK293AEQ cells assessed as bioluminescence for 10 mins by aequorin bioluminescence assay
Sequence (O54798 whole entry): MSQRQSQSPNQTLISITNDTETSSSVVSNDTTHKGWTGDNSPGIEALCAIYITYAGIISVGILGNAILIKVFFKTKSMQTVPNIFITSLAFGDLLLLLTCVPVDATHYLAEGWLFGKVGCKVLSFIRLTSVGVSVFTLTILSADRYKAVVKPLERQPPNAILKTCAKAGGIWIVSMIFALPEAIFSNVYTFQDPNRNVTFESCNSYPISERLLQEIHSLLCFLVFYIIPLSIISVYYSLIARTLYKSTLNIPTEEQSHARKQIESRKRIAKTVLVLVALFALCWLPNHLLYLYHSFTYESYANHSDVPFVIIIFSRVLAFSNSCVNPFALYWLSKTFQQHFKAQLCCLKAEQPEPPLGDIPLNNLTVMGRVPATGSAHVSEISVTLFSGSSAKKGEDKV

SMILES STR | EC50, nM
CC(C)c1ccc(S(=O)(=O)N2Cc3ccc(C(F)(F)F)nc3Nc3cccc(-c4noc(C(C)(C)O)n4)c32)cc1 | 147
CC(C)(C)c1ccc(S(=O)(=O)N2Cc3ccc(C(F)(F)F)nc3Nc3cccc(-c4cccnc4)c32)cc1 | 58
CC(C)(O)c1nc(-c2cccc3c2N(S(=O)(=O)c2ccc(C(F)(F)F)cc2)Cc2ccc(C(F)(F)F)nc2N3)no1 | 95
CC(C)(C)c1ccc(S(=O)(=O)N2Cc3ccc(C(F)(F)F)nc3Nc3cccc(-c4noc(CO)n4)c32)cc1 | 93

----------
# pEC50 values compiled below
biological target: Nuclear receptor subfamily 1 group I member 2 (Homo sapiens, UniProt O75469); assay: Activation of PXR
Sequence (O75469 whole entry): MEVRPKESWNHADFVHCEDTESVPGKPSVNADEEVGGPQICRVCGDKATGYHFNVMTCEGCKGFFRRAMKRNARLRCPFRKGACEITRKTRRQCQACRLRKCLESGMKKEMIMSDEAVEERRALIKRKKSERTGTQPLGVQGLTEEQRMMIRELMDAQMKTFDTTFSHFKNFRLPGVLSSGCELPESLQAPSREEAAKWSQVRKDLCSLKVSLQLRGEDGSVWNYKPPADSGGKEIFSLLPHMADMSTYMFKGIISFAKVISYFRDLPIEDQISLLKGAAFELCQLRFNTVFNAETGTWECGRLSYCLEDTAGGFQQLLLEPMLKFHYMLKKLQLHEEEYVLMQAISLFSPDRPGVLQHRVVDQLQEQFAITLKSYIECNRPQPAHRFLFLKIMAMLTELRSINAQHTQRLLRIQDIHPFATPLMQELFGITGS
pEC50: −log10 of the molar value.
TEST READOUT: pEC50

SMILES STR | TEST READOUT | QUALIFIER SYMBOL | READOUT VALUE
CC(C)(O)c1nc(-c2cccc3c2N(S(=O)(=O)c2ccc(OC(F)(F)F)cc2)Cc2ccc(C(F)(F)F)nc2N3)no1 | pEC50 | < | 4.52
CC(C)(C)c1ccc(S(=O)(=O)N2Cc3ccc(C(F)(F)F)nc3Nc3cccc(-c4noc(CO)n4)c32)cc1 | pEC50 | = | 5.46
C[C@@H](O)c1nc(-c2cccc3c2N(S(=O)(=O)c2ccc(C(C)(C)C)cc2)Cc2ccc(C(F)(F)F)nc2N3)no1 | pEC50 | < | 4.60
Cn1cc(-c2cccc3c2N(S(=O)(=O)c2ccc(C(C)(C)C)cc2)Cc2ccc(C(F)(F)F)nc2N3)cn1 | pEC50 | = | 5.96
CC(C)(O)c1nc(-c2cccc3c2N(S(=O)(=O)c2ccc(C(F)(F)F)cc2)Cc2ccc(C(F)(F)F)nc2N3)no1 | pEC50 | < | 4.52
CC(C)c1ccc(S(=O)(=O)N2Cc3ccc(C(F)(F)F)nc3Nc3cccc(-c4noc(C(C)(C)O)n4)c32)cc1 | pEC50 | = | 5.62
CC(C)(C)c1ccc(S(=O)(=O)N2Cc3ccc(C(F)(F)F)nc3Nc3cccc(-c4noc(C(C)(C)O)n4)c32)cc1 | pEC50 | < | 5.00
C[C@H](O)c1nc(-c2cccc3c2N(S(=O)(=O)c2ccc(C(C)(C)C)cc2)Cc2ccc(C(F)(F)F)nc2N3)no1 | pEC50 | < | 5.00
CC(C)(C)c1ccc(S(=O)(=O)N2Cc3ccc(C(F)(F)F)nc3Nc3cccc(-c4ncon4)c32)cc1 | pEC50 | = | 4.93
CC(C)(C)c1ccc(S(=O)(=O)N2Cc3ccc(C(F)(F)F)nc3Nc3cccc(-c4noc(=O)[nH]4)c32)cc1 | pEC50 | = | 5.72
CC(C)(C)c1ccc(S(=O)(=O)N2Cc3ccc(C(F)(F)F)nc3Nc3cccc(C4CCNCC4)c32)cc1 | pEC50 | = | 5.18
CC(C)(C)c1ccc(S(=O)(=O)N2Cc3ccc(C(F)(F)F)nc3Nc3cccc(-c4cccnc4)c32)cc1 | pEC50 | = | 5.74
CC(C)(O)c1nc(-c2cccc3c2N(S(=O)(=O)c2ccc(OC(F)F)cc2)Cc2ccc(C(F)(F)F)nc2N3)no1 | pEC50 | = | 5.00

----------
system: Mus musculus; test: Increase of core body temperature in DIO mouse assessed as AUC (1 to 6 hrs) of body temperature changes at 3 mg/kg by fasted temperature PD assay; assay type: functional
Classify on Activity using low band: < 0.4 degreeC.hr; middle band: ≥ 0.4 degreeC.hr and < 3 degreeC.hr; high band: ≥ 3 degreeC.hr

SMILES STR | ASSIGNED CLASS
CC(C)(O)c1nc(-c2cccc3c2N(S(=O)(=O)c2ccc(OC(F)F)cc2)Cc2ccc(C(F)(F)F)nc2N3)no1 | high band
CC(C)(O)c1nc(-c2cccc3c2N(S(=O)(=O)c2ccc(C(F)(F)F)cc2)Cc2ccc(C(F)(F)F)nc2N3)no1 | high band
CC(C)(C)c1ccc(S(=O)(=O)N2Cc3ccc(C(F)(F)F)nc3Nc3cccc(-c4ncon4)c32)cc1 | middle band
CC(C)(C)c1ccc(S(=O)(=O)N2Cc3ccc(C(F)(F)F)nc3Nc3cccc(C4CCNCC4)c32)cc1 | low band
CC(C)(C)c1ccc(S(=O)(=O)N2Cc3ccc(C(F)(F)F)nc3Nc3cccc(-c4noc(=O)[nH]4)c32)cc1 | low band
Cn1cc(-c2cccc3c2N(S(=O)(=O)c2ccc(C(C)(C)C)cc2)Cc2ccc(C(F)(F)F)nc2N3)cn1 | low band
CC(C)(O)c1nc(-c2cccc3c2N(S(=O)(=O)c2ccc(OC(F)(F)F)cc2)Cc2ccc(C(F)(F)F)nc2N3)no1 | high band
CC(C)c1ccc(S(=O)(=O)N2Cc3ccc(C(F)(F)F)nc3Nc3cccc(-c4noc(C(C)(C)O)n4)c32)cc1 | high band
CC(C)(C)c1ccc(S(=O)(=O)N2Cc3ccc(C(F)(F)F)nc3Nc3cccc(-c4noc(CO)n4)c32)cc1 | middle band
CC(C)(C)c1ccc(S(=O)(=O)N2Cc3ccc(C(F)(F)F)nc3Nc3cccc(-c4cccnc4)c32)cc1 | low band
CC(C)(C)c1ccc(S(=O)(=O)N2Cc3ccc(C(F)(F)F)nc3Nc3cccc(-c4noc(C(C)(C)O)n4)c32)cc1 | middle band
C[C@H](O)c1nc(-c2cccc3c2N(S(=O)(=O)c2ccc(C(C)(C)C)cc2)Cc2ccc(C(F)(F)F)nc2N3)no1 | high band

----------
assay: Oral bioavailability in dog at 1 mg/kg; format: ADME, organism-based, Canis lupus familiaris; details: in vivo
TEST READOUT: bioavailability (%)

SMILES STR | READOUT VALUE
CC(C)(O)c1nc(-c2cccc3c2N(S(=O)(=O)c2ccc(OC(F)(F)F)cc2)Cc2ccc(C(F)(F)F)nc2N3)no1 | 100

----------
Recorded half-life by entry
test: Half life in Sprague-Dawley rat at 0.5 mg/kg, iv; assay type: ADME, organism-based; set-up: dose 0.5 mg/kg, route intravenous; settings: in vivo
TEST READOUT: half-life (h)

SMILES STR | UNIT DESCRIPTOR | READOUT VALUE
CC(C)(C)c1ccc(S(=O)(=O)N2Cc3ccc(C(F)(F)F)nc3Nc3cccc(-c4noc(C(C)(C)O)n4)c32)cc1 | h | 1.9
C[C@@H](O)c1nc(-c2cccc3c2N(S(=O)(=O)c2ccc(C(C)(C)C)cc2)Cc2ccc(C(F)(F)F)nc2N3)no1 | h | 1.8
C[C@H](O)c1nc(-c2cccc3c2N(S(=O)(=O)c2ccc(C(C)(C)C)cc2)Cc2ccc(C(F)(F)F)nc2N3)no1 | h | 2.1
CC(C)c1ccc(S(=O)(=O)N2Cc3ccc(C(F)(F)F)nc3Nc3cccc(-c4noc(C(C)(C)O)n4)c32)cc1 | h | 1.6
CC(C)(O)c1nc(-c2cccc3c2N(S(=O)(=O)c2ccc(C(F)(F)F)cc2)Cc2ccc(C(F)(F)F)nc2N3)no1 | h | 2.5
CC(C)(C)c1ccc(S(=O)(=O)N2Cc3ccc(C(F)(F)F)nc3Nc3cccc(-c4noc(CO)n4)c32)cc1 | h | 1.7
